experiment: Mean graph midpoint for growth inhibition of all human cancer cells was determined; format: functional, Cancer cell lines; parameters: unit: µM
Would you kindly list MGM for each of these molecules?
Response field accepts a number only; no unit should be typed.

[in] Quick check: MGM of `O=C(NCCc1ccccc1)c1cc(C#Cc2cc(O)ccc2O)ccc1O` ?
[out] 3.8

[in] Item `CCCCCCNC(=O)c1cc(/C=C\c2cc(OC)ccc2OC)ccc1OC` has what recorded MGM?
[out] 16.6

[in] Can you share its MGM? I mean this molecule: `O=C(NCCc1ccc(F)cc1)c1cc(/C=C/c2cc(O)ccc2O)ccc1O`
[out] 3.5

[in] Value lookup for MGM; key = `COc1ccc(OC)c(/C=C\c2ccc(OC)c(C(=O)NCCc3ccc(F)cc3)c2)c1`
[out] 4.5

[in] # lookup: MGM of `COc1ccc(OC)c(/C=C\c2ccc(OC)c(C(=O)NCCc3ccccc3)c2)c1`
[out] 38.9

* * *

system: HCT-116; experiment: Antiproliferative activity against human colon HCT116 cell line; assay type: functional
Threshold 5 µM. GI50 below it: 1.0. GI50 at it or above: 0.0.

[in] Find out if reported GI50 for `CCCCCCNC(=O)c1cc(C#Cc2cc(OC)ccc2OC)ccc1OC` is less than 5 µM
[out] 0.0

[in] Strictly below 5 µM in GI50? `COC(=O)c1cc(/C=C\c2cc(OC)ccc2OC)ccc1OC`
[out] 0.0

[in] For this compound, is GI50 lower than 5 µM? `O=C(NCCc1ccccc1)c1cc(CCc2cc(O)ccc2O)ccc1O`
[out] 0.0

[in] Please indicate whether the reported GI50 of `COC(=O)c1cc(C#Cc2cc(OC)ccc2OC)ccc1OC` is strictly below 5 µM.
[out] 0.0

[in] # check: GI50 < 5 µM for `O=C(NCCc1ccccc1)c1cc(C#Cc2cc(O)ccc2O)ccc1O`
[out] 0.0

[in] Is the reported GI50 for `COc1ccc(OC)c(C#Cc2ccc(OC)c(C(=O)O)c2)c1` strictly below 5 µM?
[out] 0.0

[in] GI50 under 5 µM? Item: `COc1ccc(OC)c(/C=C\c2ccc(OC)c(C(=O)NCCc3ccc(F)cc3)c2)c1`
[out] 1.0

[in] Quick check: GI50 of `COc1ccc(OC)c(CC(=O)c2ccc(O)c(C(=O)NCCc3ccc(F)cc3)c2)c1` under 5 µM?
[out] 1.0

[in] Consider `O=C(NCCc1ccccc1)c1cc(/C=C\c2cc(O)ccc2O)ccc1O` . Does its GI50 lie strictly below 5 µM?
[out] 1.0

[in] Does this compound meet the criterion GI50 < 5 µM? `O=C(NCCc1ccc(F)cc1)c1cc(NCc2cc(O)ccc2O)ccc1O`
[out] 0.0

[in] Given the entry `O=C(NCCc1ccc(F)cc1)c1cc(/C=C\c2cc(O)ccc2O)ccc1O` , would its reported GI50 be below 5 µM?
[out] 1.0

[in] In the record for `O=C(NCCc1ccc(F)cc1)c1cc(CCc2cc(O)ccc2O)ccc1O` , is GI50 less than 5 µM?
[out] 1.0

[in] Report whether reported GI50 is lower than 5 µM (strictly) for `COc1ccc(OC)c(C#Cc2ccc(OC)c(C(=O)NCCc3ccccc3)c2)c1`
[out] 0.0

[in] is_below(GI50, 5 µM) for `COc1ccc(OC)c(/C=C\c2ccc(OC)c(C(=O)NCCc3ccccc3)c2)c1` ?
[out] 0.0

[in] Does the reported GI50 of `CCCCCCNC(=O)c1cc(CCc2cc(O)ccc2O)ccc1O` stay below 5 µM?
[out] 1.0

[in] Could you please tell me whether GI50 recorded for `O=C(NCCc1ccc(F)cc1)c1cc(/C=C/c2cc(O)ccc2O)ccc1O` is less than 5 µM?
[out] 1.0

[in] Check if GI50 falls below 5 µM for `CCCCCCNC(=O)c1cc(/C=C\c2cc(OC)ccc2OC)ccc1OC` .
[out] 0.0

[in] Determine if `CCCCCCNC(=O)c1cc(/C=C\c2cc(O)ccc2O)ccc1O` shows GI50 strictly lower than 5 µM.
[out] 1.0

[in] Input `COc1ccc(OC)c(CCc2ccc(O)c(C(=O)NCCc3ccc(F)cc3)c2)c1` ; condition: GI50 strictly below 5 µM. Does it hold?
[out] 0.0

[in] Determine whether this compound shows GI50 lower than 5 µM (ties excluded): `O=C(NCCc1ccccc1)c1cc(/C=C/c2cc(O)ccc2O)ccc1O`
[out] 1.0

[in] A record lists `COc1ccc(OC)c(C#Cc2ccc(OC)c(C(=O)NCCc3ccc(F)cc3)c2)c1` . Is its GI50 below 5 µM?
[out] 1.0

* * *

Would you mind telling me the reported GI50 of each entry?
test system: HOP-62; test: Antiproliferative activity against human lung HOP-62 cell line; type: functional
The response must be a number in µM with no trailing unit.

[in] So what's the measured GI50 for this one? `O=C(NCCc1ccc(F)cc1)c1cc(NCc2cc(O)ccc2O)ccc1O`
[out] 12

[in] Consider the compound `O=C(NCCc1ccc(F)cc1)c1cc(CCc2cc(O)ccc2O)ccc1O` and give its measured GI50.
[out] 2.6

[in] Can you look up the measured GI50 of `CCCCCCNC(=O)c1cc(/C=C\c2cc(O)ccc2O)ccc1O` for me?
[out] 8.3

[in] Query: GI50; subject: `O=C(NCCc1ccc(F)cc1)c1cc(/C=C/c2cc(O)ccc2O)ccc1O`
[out] 8.8

[in] What value of measured GI50 is listed for `O=C(NCCc1ccccc1)c1cc(CCc2cc(O)ccc2O)ccc1O` ?
[out] 13.9

[in] Field request: GI50 | item: `O=C(NCCc1ccccc1)c1cc(/C=C\c2cc(O)ccc2O)ccc1O`
[out] 3

[in] Record request: GI50 value, item `O=C(NCCc1ccccc1)c1cc(C#Cc2cc(O)ccc2O)ccc1O`
[out] 10.3

[in] Need GI50, item `O=C(NCCc1ccccc1)c1cc(/C=C/c2cc(O)ccc2O)ccc1O`
[out] 9.3

[in] Give the measured GI50 of `COc1ccc(OC)c(CCc2ccc(O)c(C(=O)NCCc3ccc(F)cc3)c2)c1` .
[out] 15

[in] Consider the compound `COc1ccc(OC)c(C#Cc2ccc(OC)c(C(=O)O)c2)c1` and give its measured GI50.
[out] 25.6

* * *

biological target: Tubulin (Bos taurus, UniProt Q6B856+Q862F3); assay: Inhibition of tubulin polymerization was determined at 1.2 mg/mL concentration
Sequence (Q6B856 whole entry): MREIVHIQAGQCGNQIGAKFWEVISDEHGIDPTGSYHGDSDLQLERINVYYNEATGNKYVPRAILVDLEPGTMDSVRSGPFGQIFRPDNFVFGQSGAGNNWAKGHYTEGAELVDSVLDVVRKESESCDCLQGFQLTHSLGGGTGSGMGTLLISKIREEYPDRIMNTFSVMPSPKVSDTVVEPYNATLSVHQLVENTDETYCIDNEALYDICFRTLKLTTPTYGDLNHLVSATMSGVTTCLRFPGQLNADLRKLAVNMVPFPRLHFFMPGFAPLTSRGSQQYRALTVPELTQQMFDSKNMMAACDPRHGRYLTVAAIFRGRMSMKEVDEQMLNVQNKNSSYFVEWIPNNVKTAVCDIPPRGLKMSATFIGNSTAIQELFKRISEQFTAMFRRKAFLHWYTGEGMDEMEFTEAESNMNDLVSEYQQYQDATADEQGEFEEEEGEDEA
Sequence (Q862F3 whole entry): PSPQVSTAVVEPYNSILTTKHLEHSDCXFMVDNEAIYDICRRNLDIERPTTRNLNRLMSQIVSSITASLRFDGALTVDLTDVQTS
Task for the reader: assign each of the following molecules its reported IC50.
Please reply with the bare figure in µM and do not write the unit itself.

[in] Which measured IC50 value corresponds to `COc1ccc(OC)c(CCc2ccc(O)c(C(=O)NCCc3ccc(F)cc3)c2)c1` ?
[out] 1.4

[in] Field request: IC50 | item: `CCCCCCNC(=O)c1cc(/C=C/c2cc(O)ccc2O)ccc1O`
[out] 5

[in] // returns reported IC50 for input `O=C(NCCc1ccccc1)c1cc(/C=C/c2cc(O)ccc2O)ccc1O`
[out] 4

[in] Fill blank: measured IC50 of the molecule `O=C(NCCc1ccc(F)cc1)c1cc(/C=C\c2cc(O)ccc2O)ccc1O` is ____.
[out] 4.2

[in] Would you kindly share the measured IC50 for `O=C(NCCc1ccc(F)cc1)c1cc(/C=C/c2cc(O)ccc2O)ccc1O` ?
[out] 2.9

[in] What does the record list as IC50 for `O=C(NCCc1ccc(F)cc1)c1cc(NCc2cc(O)ccc2O)ccc1O` ?
[out] 6.4

[in] Requested read-out: IC50. Entry: `COc1ccc(OC)c(CC(=O)c2ccc(O)c(C(=O)NCCc3ccc(F)cc3)c2)c1`
[out] 1.4

* * *

tested on: CCRF-CEM; assay: Antiproliferative activity against human leukemia CCRF-CEM cell line; format: functional
VALUE_KIND: GI50 (µM)
Express your answer in µM, writing the number without its unit.

[in] # get_value(readout='GI50', item= `COC(=O)c1cc(C#Cc2cc(OC)ccc2OC)ccc1OC` )
[out] 36.8

[in] Can you share its GI50? I mean this compound: `CCCCCCNC(=O)c1cc(C#Cc2cc(OC)ccc2OC)ccc1OC`
[out] 7.9

[in] Suppose we examine the compound `O=C(NCCc1ccccc1)c1cc(C#Cc2cc(O)ccc2O)ccc1O` ; what GI50 value has been reported?
[out] 0.3

[in] // lookup GI50 for `O=C(NCCc1ccc(F)cc1)c1cc(/C=C\c2cc(O)ccc2O)ccc1O`
[out] 1.3

[in] Record request: GI50 value, item `CCCCCCNC(=O)c1cc(/C=C\c2cc(OC)ccc2OC)ccc1OC`
[out] 24.7

[in] Given `CCCCCCNC(=O)c1cc(/C=C\c2cc(O)ccc2O)ccc1O` , state its recorded GI50.
[out] 1.2

[in] What does the data say about its GI50? Entry: `O=C(NCCc1ccccc1)c1cc(/C=C/c2cc(O)ccc2O)ccc1O`
[out] 2.1

[in] I am curious: what GI50 value has been reported for `COc1ccc(OC)c(/C=C\c2ccc(OC)c(C(=O)NCCc3ccc(F)cc3)c2)c1` ?
[out] 3.4
